The origin of these recorded values is patent US7135303B2.

# SYSTEM: recombinant GST-ARTS-1 fusion protein (Homo sapiens)
# Construct: ARTS-1 extracellular domain (i.e., the ectodomain; amino acids 30–941) was PCR amplified; made in house
# ASSAY_NOTES: ARTS-1 aminopeptidase activity assay (amide bond hydrolysis of amino acid p-nitroanilide substrates, absorbance at 380 nm)
# Format: biochemical
# RUN_CONDITIONS: aa-pNA substrate 0.25 to 8 mM, 24 pmoles GST-ARTS-1, 50 mM Tris pH 7.5, room temperature, 1 hour; Lineweaver-Burk
VALUE_KIND: Vmax (pmol/pmol/min)

>  <COMPOUND>
C[C@H](N)C(=O)Nc1ccc([N+](=O)[O-])cc1 [Ala]

>  <SYSTEM>
recombinant GST-ARTS-1 fusion protein (Homo sapiens)

>  <EXPERIMENTAL_VALUE>
26.18

$$$$

A = CC(C)C[C@H](N)C(=O)Nc1ccc([N+](=O)[O-])cc1 [Leu]
B = CC(C)[C@H](N)C(=O)Nc1ccc([N+](=O)[O-])cc1 [Val]
Request: Which shows the larger Vmax value: A or B ? Write down the label attached to your selection.
Result: A

====

# SYSTEM: recombinant GST-ARTS-1 fusion protein (Homo sapiens)
# Construct: ARTS-1 extracellular domain (i.e., the ectodomain; amino acids 30–941) was PCR amplified; made in house
# ASSAY_NOTES: ARTS-1 aminopeptidase activity assay (amide bond hydrolysis of amino acid p-nitroanilide substrates, absorbance at 380 nm)
# Type: biochemical
# RUN_CONDITIONS: aa-pNA substrate with GST-ARTS-1
VALUE_KIND: kcat (s^−1 × 10^−2)

>  <MOL_SMILES>
CSCC[C@H](N)C(=O)Nc1ccc([N+](=O)[O-])cc1

>  <U>
s^−1 × 10^−2

>  <EXPERIMENTAL_VALUE>
22.27

$$$$

1 = N[C@@H](CS)C(=O)Nc1ccc([N+](=O)[O-])cc1
2 = C[C@H](N)C(=O)Nc1ccc([N+](=O)[O-])cc1
3 = CC(C)[C@H](N)C(=O)Nc1ccc([N+](=O)[O-])cc1
Request: Sort by kcat, descending. Form field (ranking): labels in requested order.
Result: 2, 1, 3

I = O=C(Nc1ccc([N+](=O)[O-])cc1)[C@@H]1CCCN1
II = CC(C)C[C@H](N)C(=O)Nc1ccc([N+](=O)[O-])cc1
Request: Higher kcat between I and II ? Which one? Tell me its label.
Result: II

====

# SYSTEM: recombinant GST-ARTS-1 fusion protein (Homo sapiens, UniProt Q9NZ08)
# Construct: ARTS-1 extracellular domain (i.e., the ectodomain; amino acids 30–941) was PCR amplified; made in house
# Sequence (Q9NZ08 30-941): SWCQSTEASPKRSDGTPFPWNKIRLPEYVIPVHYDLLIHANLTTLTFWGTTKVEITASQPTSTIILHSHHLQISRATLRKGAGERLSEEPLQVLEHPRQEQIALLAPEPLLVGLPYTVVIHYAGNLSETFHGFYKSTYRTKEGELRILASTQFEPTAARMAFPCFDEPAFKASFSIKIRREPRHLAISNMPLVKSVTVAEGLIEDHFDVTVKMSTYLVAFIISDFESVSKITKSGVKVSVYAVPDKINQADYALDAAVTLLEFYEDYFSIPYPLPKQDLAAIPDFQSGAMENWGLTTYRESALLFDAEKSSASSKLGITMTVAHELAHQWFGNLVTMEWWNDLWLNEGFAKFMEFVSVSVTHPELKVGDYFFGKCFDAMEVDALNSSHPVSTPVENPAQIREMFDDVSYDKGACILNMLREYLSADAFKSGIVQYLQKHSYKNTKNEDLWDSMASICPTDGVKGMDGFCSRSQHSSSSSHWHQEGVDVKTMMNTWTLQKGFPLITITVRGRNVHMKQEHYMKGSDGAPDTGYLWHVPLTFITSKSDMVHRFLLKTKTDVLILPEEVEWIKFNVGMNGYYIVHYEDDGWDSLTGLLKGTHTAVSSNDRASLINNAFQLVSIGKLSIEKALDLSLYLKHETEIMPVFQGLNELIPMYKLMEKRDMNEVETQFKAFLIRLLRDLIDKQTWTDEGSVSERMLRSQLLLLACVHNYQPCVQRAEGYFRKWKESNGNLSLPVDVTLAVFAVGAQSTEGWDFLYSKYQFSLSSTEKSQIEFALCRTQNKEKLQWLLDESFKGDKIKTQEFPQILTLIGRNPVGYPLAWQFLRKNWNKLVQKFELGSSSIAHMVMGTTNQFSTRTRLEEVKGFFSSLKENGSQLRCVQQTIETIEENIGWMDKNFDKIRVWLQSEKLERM
# ASSAY_NOTES: ARTS-1 aminopeptidase activity assay (amide bond hydrolysis of amino acid p-nitroanilide substrates, absorbance at 380 nm)
# Format: biochemical
# RUN_CONDITIONS: aa-pNA substrate 0.25 to 8 mM, 24 pmoles GST-ARTS-1, 50 mM Tris pH 7.5, room temperature, 1 hour; Lineweaver-Burk
# Description: To accomplish this, commercially available amino acid p-nitroanilide substrates were incubated with purified GST-ARTS-1 fusion protein for 1 hour under conditions of linear enzyme activity over time. The rate of amide bond hydrolysis was determined by measuring the absorbance of the p-nitroaniline aminopeptidase reaction product at 380 nm. […] Kinetic constants were determined by Lineweaver-Burk analysis. […]
VALUE_KIND: Vmax (pmol/pmol/min)

These recorded examples may help you get a feel for the data.
>  <COMPOUND>
O=C(Nc1ccc([N+](=O)[O-])cc1)[C@@H]1CCCN1

>  <Vmax (pmol/pmol/min)>
5.29

$$$$
>  <COMPOUND>
N[C@@H](Cc1ccccc1)C(=O)Nc1ccc([N+](=O)[O-])cc1 [Phe, phenylalanine p-nitroanilide]

>  <Vmax (pmol/pmol/min)>
5.14

$$$$

I = CSCC[C@H](N)C(=O)Nc1ccc([N+](=O)[O-])cc1
II = NCC(=O)Nc1ccc([N+](=O)[O-])cc1 [Gly, glycine p-nitroanilide]
III = CC[C@H](C)[C@H](N)C(=O)Nc1ccc([N+](=O)[O-])cc1 [Ile, isoleucine p-nitroanilide]
Request: // sort entries: Vmax, high to low # output: labels, in the requested order
Result: I, II, III
